// reported Kd for each item listed
target_or_test_system: T1, recombinant human LAG3 expressed with a C-terminal mouse IgG2a mFc tag (human)
T1 construct: Called dimeric; also called hLAG3-mFc; hLAG3 dimer
T1 chain: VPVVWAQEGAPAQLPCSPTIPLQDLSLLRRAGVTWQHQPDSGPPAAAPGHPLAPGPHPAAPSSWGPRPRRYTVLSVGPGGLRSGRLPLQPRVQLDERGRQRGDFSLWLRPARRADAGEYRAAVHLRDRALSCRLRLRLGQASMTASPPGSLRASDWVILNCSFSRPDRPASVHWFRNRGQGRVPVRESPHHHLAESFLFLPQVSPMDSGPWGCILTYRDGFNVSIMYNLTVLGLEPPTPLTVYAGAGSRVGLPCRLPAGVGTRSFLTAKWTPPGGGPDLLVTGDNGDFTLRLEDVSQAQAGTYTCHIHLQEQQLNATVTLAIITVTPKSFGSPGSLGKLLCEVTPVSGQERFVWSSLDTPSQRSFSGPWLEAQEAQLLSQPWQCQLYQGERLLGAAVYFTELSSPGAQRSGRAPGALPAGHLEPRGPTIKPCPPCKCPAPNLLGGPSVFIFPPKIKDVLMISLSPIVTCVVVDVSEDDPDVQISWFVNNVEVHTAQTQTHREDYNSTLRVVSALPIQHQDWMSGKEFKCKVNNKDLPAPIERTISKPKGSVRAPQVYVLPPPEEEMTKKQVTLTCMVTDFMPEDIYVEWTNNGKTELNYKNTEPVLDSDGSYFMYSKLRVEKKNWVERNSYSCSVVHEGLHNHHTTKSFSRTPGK
experiment_notes: SPR, mAb captured, 25 C

See these solved cases before continuing.
H4sH15479P (antibody, V domains shown) VH: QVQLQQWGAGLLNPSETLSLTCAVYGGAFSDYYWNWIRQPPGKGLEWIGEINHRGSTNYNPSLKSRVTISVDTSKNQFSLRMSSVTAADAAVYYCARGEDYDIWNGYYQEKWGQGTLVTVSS VL: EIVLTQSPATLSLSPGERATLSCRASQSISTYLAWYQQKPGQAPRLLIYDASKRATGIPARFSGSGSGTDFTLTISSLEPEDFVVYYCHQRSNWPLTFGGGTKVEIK :: ≤ 3.28 pM
H4sH14813N (antibody, human IgG4 S228P, kappa, V domains shown, H4sH = modified human IgG4 Fc) VH: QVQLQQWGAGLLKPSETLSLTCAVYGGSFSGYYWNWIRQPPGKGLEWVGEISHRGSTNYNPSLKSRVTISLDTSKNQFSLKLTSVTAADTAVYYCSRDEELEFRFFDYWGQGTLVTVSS VL: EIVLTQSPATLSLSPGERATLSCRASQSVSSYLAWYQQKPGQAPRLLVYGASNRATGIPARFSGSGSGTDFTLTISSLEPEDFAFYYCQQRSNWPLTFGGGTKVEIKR :: 10.6 pM

With those in mind, consider the next binder.
What does the record list as Kd for H4H15483P (antibody, human IgG4, V domains shown, H4H = human IgG4 Fc with S108P hinge mutation) VH: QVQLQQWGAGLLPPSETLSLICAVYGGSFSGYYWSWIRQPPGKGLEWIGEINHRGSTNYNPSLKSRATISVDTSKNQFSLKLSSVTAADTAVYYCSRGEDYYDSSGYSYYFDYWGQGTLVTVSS VL: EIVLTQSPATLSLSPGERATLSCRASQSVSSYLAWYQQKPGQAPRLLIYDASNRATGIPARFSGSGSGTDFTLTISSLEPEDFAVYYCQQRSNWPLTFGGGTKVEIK ?
≤ 7.45 pM
